Each recorded value in this set is attributed to PubChem BioAssay (Tox21).

PROTOCOL DESCRIPTION: qHTS assay to identify small molecule agonists of the estrogen related receptor (ERR) signaling pathway from Tox21 library (AID 1224849); further: on the % scale 0 is the no-effect control and ±100 the full control effect; nearly all actives have a fitted effect of over 15% in size
CONDITION NOTES: ERR reporter cell line, ONE-Glo luciferase, 18 h; at 92.4 µM (top of the series)
READOUT LABEL: activity change, positive = activation (%)
Numbers only; they are read as %.

Reference set, count: 5
[
  {
    "MOLECULE": "COc1cc(S(=O)(=O)O)c(C)cc1N=Nc1c(O)ccc2cc(S(=O)(=O)O)ccc12",
    "READOUT LABEL": "activity change, positive = activation",
    "TEST VALUE": -21.5
  },
  {
    "MOLECULE": "O=C1C(c2[nH]c3ccc(S(=O)(=O)O)cc3c2O)=Nc2ccc(S(=O)(=O)O)cc21",
    "READOUT LABEL": "activity change, positive = activation",
    "TEST VALUE": -7.96
  },
  {
    "MOLECULE": "CCC(COC(=O)CCS)(COC(=O)CCS)COC(=O)CCS",
    "READOUT LABEL": "activity change, positive = activation",
    "TEST VALUE": 4.52
  },
  {
    "MOLECULE": "Cc1ccc(-c2ccccc2)cc1",
    "READOUT LABEL": "activity change, positive = activation",
    "TEST VALUE": -3.62
  },
  {
    "MOLECULE": "CCCCCCCCCCCCCC[N+](C)(C)Cc1ccccc1",
    "READOUT LABEL": "activity change, positive = activation",
    "TEST VALUE": -69.7
  }
]

Would you kindly share the measured activity change, positive = activation for OC12N=C(c3ccccc3)SC1Cc1cc(Cl)ccc12 (configuration not stated) ? 47.6

Consider the molecule O=C(O)CCN(C1(C(=O)NO)CCCC1)S(=O)(=O)c1ccc(Oc2ccc(F)cc2)cc1 and give its measured activity change, positive = activation. 4.9

Could you share which activity change, positive = activation value was measured for Cc1c(C)c([N+](=O)[O-])c(C(C)(C)C)c([N+](=O)[O-])c1C ? -6.21

Need activity change, positive = activation, item Cc1cc(-c2ccc(N=Nc3cc(S(=O)(=O)O)c4ccccc4c3N)c(C)c2)ccc1N=Nc1cc(S(=O)(=O)O)c2ccccc2c1N -50.3

For Cc1cccc2cccnc12 , what is its reported activity change, positive = activation? 0.0767

Request the reported activity change, positive = activation associated with CC(C)CCCCCOC(=O)CCS 3.69

Would you kindly share the measured activity change, positive = activation for O=C(O)c1cccc(C(F)(F)F)c1 ? -2.71

====

PROTOCOL DESCRIPTION: Caspase-3/7 induction in HepG2 cells by small molecules, qHTS cell viability counter screen (AID 1346981); further: nearly all actives have a fitted effect of over 30% in size
CONDITION NOTES: CellTiter-Fluor fluorescence, 17 h; series mostly up to 92.4 µM
Records with an inconclusive call do not appear. The source made the active and inactive calls. The call rests on the fitted dose curve; in most records, active means well fitted cell-killing curve with a large enough effect in the repeat runs; inconclusive means weak or mixed curves, or effect the other way; inactive means flat fitted curve, though single readings scatter.
Allowed answers: y for active, n for inactive

[
  {
    "MOLECULE": "CC(=O)c1ccc(C(C)=O)cc1",
    "ASSIGNED CLASS": "n"
  },
  {
    "MOLECULE": "CCCCCCCC/C=C\\CCCCCCCCN",
    "ASSIGNED CLASS": "n"
  },
  {
    "MOLECULE": "O=C(O)c1cc(O)c2ccccc2c1O",
    "ASSIGNED CLASS": "y"
  },
  {
    "MOLECULE": "CCc1ccc(Br)cc1",
    "ASSIGNED CLASS": "n"
  },
  {
    "MOLECULE": "CC(=O)Oc1cc2c(s1)CCN(C(C(=O)C1CC1)c1ccccc1F)C2 (centres undefined)",
    "ASSIGNED CLASS": "n"
  },
  {
    "MOLECULE": "CCCC1CCC(=O)CC1",
    "ASSIGNED CLASS": "n"
  }
]

Could you kindly confirm the outcome this assay logged for C=CCCC(=O)/C=C/C1C(C)=CCCC1(C)C (centres undefined) ? n
